Molecular target: RCL1 peptide/HLA-A*02:01 complex (recombinant) (human, UniProt P16213 21-119 (Pongo pygmaeus entry))
Experiment: SPR
OBSERVATION TYPE: binding result

>>> result("AS170036 VL1VH1-VHG108M (scFv) scFv: QSALTQPRSVSGSPGQSVTISCAGTSSDVGSENYVSWYQQHPGKAPKLMIYQVNKRASGVPDRFSGSKSGNTASLTISGLQAEDEADYYCASYRSSDHNIVFGGGTKLTVLGGGGSGGGGSGGGGSEVQLVESGGGLVQPGGSLRLSCAASGFTFSSYAMSWVRQAPGKGLEWVSTINSGTGSPYYADSVKGRFTISRDNSKNTLYLQMNSLRAEDTAVYYCAKNFFDGSWFLMPPAMDYWGQGTLVTVSSHHHHHH")
"no binding"
>>> result("AS170036 VL1VH1-VLH98A (scFv) scFv: QSALTQPRSVSGSPGQSVTISCAGTSSDVGSENYVSWYQQHPGKAPKLMIYQVNKRASGVPDRFSGSKSGNTASLTISGLQAEDEADYYCASYRSSDANIVFGGGTKLTVLGGGGSGGGGSGGGGSEVQLVESGGGLVQPGGSLRLSCAASGFTFSSYAMSWVRQAPGKGLEWVSTINSGTGSPYYADSVKGRFTISRDNSKNTLYLQMNSLRAEDTAVYYCAKNFFDGSWFLGPPAMDYWGQGTLVTVSSHHHHHH")
"no binding"
>>> result("AS170036 VL1VH1-VHG108N (scFv) scFv: QSALTQPRSVSGSPGQSVTISCAGTSSDVGSENYVSWYQQHPGKAPKLMIYQVNKRASGVPDRFSGSKSGNTASLTISGLQAEDEADYYCASYRSSDHNIVFGGGTKLTVLGGGGSGGGGSGGGGSEVQLVESGGGLVQPGGSLRLSCAASGFTFSSYAMSWVRQAPGKGLEWVSTINSGTGSPYYADSVKGRFTISRDNSKNTLYLQMNSLRAEDTAVYYCAKNFFDGSWFLNPPAMDYWGQGTLVTVSSHHHHHH")
"no binding"
